Field: Test A rating (disease control). Provide a value for each of the compounds that follow.
Tested on: Plasmopara viticola (the causal agent of grape downy mildew)
Assay: Test A: grape downy mildew, grape seedlings inoculated then sprayed with test suspension, visual disease rating
Type: in vivo
Conditions: test suspension 10 ppm, 100 = 100% disease control, 0 = no control relative to controls
Kindly provide the numeric value in % only, without the unit symbol.

Return reported Test A rating (disease control); argument: CC(=NOCC(=O)N1CCC(c2nc(C3=NOC(n4c(=O)n(C)c5ccccc54)C3)cs2)CC1)C(F)(F)F (stereo not drawn)
100

Now consider O=C(CONC(=O)C(F)(F)F)N1CCC(c2nc(C3=NOC(c4c(F)cccc4F)C3)cs2)CC1 (stereo not drawn) .
98

Now consider CC(CC(F)(F)F)=NOCC(=O)N1CCC(c2nc(C3=NOC(c4c(F)cccc4F)C3)cs2)CC1 (racemic) .
100

Now consider CSC(=NOCC(=O)N1CCC(c2nc(C3=NOC(c4c(F)cccc4F)C3)cs2)CC1)C(=O)N(C)C (racemic) .
0

Now consider O=C(CON=C1CCCC1)N1CCC(c2nc(C3=NOC(c4c(F)cccc4F)C3)cs2)CC1 (stereo not drawn) .
95

Now consider CC(=NOCC(=O)N1CCC(c2nc(C3=NOC(c4c(F)cccc4F)C3)cs2)CC1)C(F)(F)F (racemic) .
100

Now consider CCC(C)=NOCC(=O)N1CCC(c2nc(C3=NOC(c4c(F)cccc4F)C3)cs2)CC1 (racemic) .
100

Now consider CC(=NOCC(=O)N1CCC(c2nc(C3=NOC(c4ccccc4C#N)C3)cs2)CC1)C(F)(F)F (stereo not drawn) .
100

Now consider CCCC=NOCC(=O)N1CCC(c2nc(C3=NOC(c4c(F)cccc4F)C3)cs2)CC1 (racemic) .
98

Now consider O=C(CON=CC(F)(F)F)N1CCC(c2nc(C3=NOC(c4c(F)cccc4F)C3)cs2)CC1 (stereo not drawn) .
100

Now consider CC(C)=NOCC(=O)N1CCC(c2nc(C3=NOC4(CCc5ccccc54)C3)cs2)CC1 (stereo not drawn) .
99

Now consider CC(=NOCC(=O)N1CCC(c2nc(C3=NOC4(C3)c3ccccc3C(=O)N4C)cs2)CC1)C(F)(F)F (stereo not drawn) .
100

Now consider CCC(=NOCC(=O)N1CCC(c2nc(C3=NOC(c4c(F)cccc4F)C3)cs2)CC1)C(F)(F)F (racemic) .
98

Now consider Cn1c(=O)n(C2CC(c3csc(C4CCN(C(=O)CON=CC(F)(F)F)CC4)n3)=NO2)c2ccccc21 (stereo not drawn) .
100

Now consider N#CC(C#N)=NOCC(=O)N1CCC(c2nc(C3=NOC(c4c(F)cccc4F)C3)cs2)CC1 (stereo not drawn) .
99
